Where do the numbers come from? From patent WO2016059602A2.

- Measured target: human HER3 receptor (human, UniProt P21860 20-1342)
- Sequence (P21860 20-1342 limits assumed): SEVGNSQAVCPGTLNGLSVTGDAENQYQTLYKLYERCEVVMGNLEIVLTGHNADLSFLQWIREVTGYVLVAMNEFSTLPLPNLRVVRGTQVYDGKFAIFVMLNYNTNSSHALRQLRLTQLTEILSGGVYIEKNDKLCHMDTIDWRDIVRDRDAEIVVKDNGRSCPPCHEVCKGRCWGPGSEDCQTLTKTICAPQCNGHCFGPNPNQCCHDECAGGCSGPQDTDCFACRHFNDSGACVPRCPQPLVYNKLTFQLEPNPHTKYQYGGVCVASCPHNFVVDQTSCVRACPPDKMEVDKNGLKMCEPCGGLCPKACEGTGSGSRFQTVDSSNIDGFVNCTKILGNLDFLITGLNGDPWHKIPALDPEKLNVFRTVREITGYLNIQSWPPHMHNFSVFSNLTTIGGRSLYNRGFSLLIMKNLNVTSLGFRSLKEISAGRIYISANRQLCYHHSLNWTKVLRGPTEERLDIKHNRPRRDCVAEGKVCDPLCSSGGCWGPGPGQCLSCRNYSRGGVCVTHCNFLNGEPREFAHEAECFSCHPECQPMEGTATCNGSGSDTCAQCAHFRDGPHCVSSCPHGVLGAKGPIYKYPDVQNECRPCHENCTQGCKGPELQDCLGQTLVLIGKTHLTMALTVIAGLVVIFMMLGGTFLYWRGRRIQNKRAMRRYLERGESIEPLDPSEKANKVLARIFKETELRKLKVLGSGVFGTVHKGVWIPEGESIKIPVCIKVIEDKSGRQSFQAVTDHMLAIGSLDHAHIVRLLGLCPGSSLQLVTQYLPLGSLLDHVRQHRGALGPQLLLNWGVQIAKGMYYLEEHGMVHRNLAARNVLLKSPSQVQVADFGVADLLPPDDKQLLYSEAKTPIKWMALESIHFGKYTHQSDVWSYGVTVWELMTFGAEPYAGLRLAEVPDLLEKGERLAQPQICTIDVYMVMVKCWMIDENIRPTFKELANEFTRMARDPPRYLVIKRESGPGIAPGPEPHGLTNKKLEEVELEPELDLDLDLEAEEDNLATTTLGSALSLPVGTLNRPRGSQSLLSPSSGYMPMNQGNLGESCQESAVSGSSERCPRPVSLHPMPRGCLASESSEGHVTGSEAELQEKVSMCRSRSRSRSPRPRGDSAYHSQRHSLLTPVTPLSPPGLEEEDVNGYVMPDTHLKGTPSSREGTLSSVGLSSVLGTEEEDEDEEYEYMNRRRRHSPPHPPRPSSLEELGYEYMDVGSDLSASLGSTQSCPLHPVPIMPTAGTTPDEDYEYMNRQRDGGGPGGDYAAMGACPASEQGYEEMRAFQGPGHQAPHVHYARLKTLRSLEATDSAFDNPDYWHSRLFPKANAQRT
- Assay: cell-based or functional assay
Class yes (1): Phospho-HER3 ELISA IC50, heregulin induced HER3 phosphorylation, BxPC3 cells at least 0.01 µg/mL. Class no (0): Phospho-HER3 ELISA IC50, heregulin induced HER3 phosphorylation, BxPC3 cells below 0.01 µg/mL.

Previously resolved entries follow.
Binder	Answer label
humanized 1D9 Fc disabled antibody (antibody, V domains shown, also called humanized 1D9 H6L2 Fc disabled antibody) VH: QVQLVQSGAEVKKPGASVKVSCKASGYTFTSYWMHWVRQAPGQGLEWMGVIDPSDGYSHYNQKFKGKVTLTVDTSISTAYMELSRLRSDDTAVYYCAGGLAGTLDYWGQGTTVTVSS VL: DIQMTQSPSSLSASVGDRVTITCRSSQSIVHSSGNTYLQWFQQKPGKAPKLLIYKVSNRFSGVPSRFSGSGSGTDFTLTISSLQPEDFAVYYCFQGSHVPWTFGQGTKLEIKR	yes (1)
humanized 1D9 POTELLIGENT antibody (antibody, human IgG1, kappa, V domains shown, also called humanized 1D9 H6L2 POTELLIGENT antibody; humanized POTELLIGENT antibody) VH: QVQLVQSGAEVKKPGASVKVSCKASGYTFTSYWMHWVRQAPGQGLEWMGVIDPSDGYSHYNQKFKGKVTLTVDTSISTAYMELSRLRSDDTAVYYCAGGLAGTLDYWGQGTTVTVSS VL: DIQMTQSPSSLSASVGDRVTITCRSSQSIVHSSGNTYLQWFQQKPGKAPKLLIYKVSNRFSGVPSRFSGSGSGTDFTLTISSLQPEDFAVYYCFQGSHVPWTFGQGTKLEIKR	no (0)
murine 15D5 antibody (M5.15D5.2A1.1H10) (antibody, V domains shown) VH: EFQLQQSGPELVKPGASVKISCKASGYSFTDYNMNWVKQNNGKSLEWIGGINPNYGTTVYNQKFKGKATLTVDQSSSTAYMQLVSLTSEDSAVYYCARMTTIVPFDYWGQGTTLTVSS VL: DIQMTQTTFSLSASLGDRVTISCRASQDISNYLNWYQQKPDGTVKLLIYYTSTLHSGVPSRFSGSGSGTDYFLTIRNLEEEDIATYFCQQGYTLPWTFGGGTKLDIK	yes (1)

Ask | Decide: Phospho-HER3 ELISA IC50, heregulin induced HER3 phosphorylation, BxPC3 cells of murine 1D9 antibody (M5.1D9.1F5) (antibody, V domains shown) VH: QVQLQQPGAELVRPGTSVKLSCKASGYTFTSYWMHWVKQRPGQGLEWIGVIDPSDGYSHYNQKFKGKATLTVDTSSSTAYMQLSSLTSEDSAVYYCAGGLAGTLDYWGQGTTLTVSS VL: DVLMTQTPLSLPVSLGDQASISCRSSQSIVHSSGNTYLQWFLQKPGQSPKLLISKVSNRFSGVPDRFSGSGSGTDFTLRISRVEAEDLGLYYCFQGSHVPWTFGGGTKLEIK >= 0.01 µg/mL?
Reply | no (0)

Ask | Item humanized 1D9 antibody (antibody, human IgG1, kappa, V domains shown) VH: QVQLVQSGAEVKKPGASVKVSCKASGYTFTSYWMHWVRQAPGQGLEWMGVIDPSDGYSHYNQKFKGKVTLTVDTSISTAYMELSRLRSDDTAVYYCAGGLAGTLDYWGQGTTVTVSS VL: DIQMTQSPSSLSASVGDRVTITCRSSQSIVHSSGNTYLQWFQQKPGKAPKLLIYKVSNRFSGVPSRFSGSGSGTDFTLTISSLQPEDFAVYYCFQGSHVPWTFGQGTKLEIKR with Phospho-HER3 ELISA IC50, heregulin induced HER3 phosphorylation, BxPC3 cells of 0.01 µg/mL or above?
Reply | yes (1)
